Ka values by entry
molecular target: Human DR5 (Homo sapiens, UniProt O14763); test: Binding affinity of antibody to human DR5 (BIAcore, CM5 chip); conditions: association rate, Human DR5, 1:1 Langmuir binding model

molecule | Ka (M⁻¹ s⁻¹)
DA8: humanized or deimmunized variant of parental clone D0; CDRs SEQ ID NO 1, 2, 7 / 4, 10, 13 (antibody, V domains shown) VH: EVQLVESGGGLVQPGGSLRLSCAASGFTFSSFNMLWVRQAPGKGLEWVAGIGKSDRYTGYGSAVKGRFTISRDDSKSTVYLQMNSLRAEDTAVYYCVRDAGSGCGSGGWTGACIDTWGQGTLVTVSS VL: DIQMTQSPSSLSASVGDRVTITCSGGDSYAGSYYYGWYQQKPGKAPKTLIYNNNNRPSGVPSRFSGSGSGTDFTLTISSLQPEDFATYYCGSRDSSYVGIFGQGTKVEIK | 1.6e+06
DA3: humanized or deimmunized variant of parental clone D0; CDRs SEQ ID NO 1, 2, 7 / 4, 10, 13 (antibody, V domains shown) VH: EVQLVESGGGLVQPGGSLRLSCAASGFTFSSFNMLWVRQAPGKGLEWVAGIGKSDRYTGYGSAVKGRFTISRDTSKSTVYLQMNSLRAEDTAVYYCVRDAGSGCGSGGWTGACIDTWGQGTLVTVSS VL: DIQMTQSPSSLSASVGDRVTITCSGGDSYAGSYYYGWYQQKPGKAPKTLIYNNNNRPSGVPSRFSGSTSGTDFTLTISSLQPEDFATYYCGSRDSSYVGIFGQGTKVEIK | 4.9e+06
DA2: humanized or deimmunized variant of parental clone D0; CDRs SEQ ID NO 1, 2, 7 / 4, 10, 13 (antibody, V domains shown) VH: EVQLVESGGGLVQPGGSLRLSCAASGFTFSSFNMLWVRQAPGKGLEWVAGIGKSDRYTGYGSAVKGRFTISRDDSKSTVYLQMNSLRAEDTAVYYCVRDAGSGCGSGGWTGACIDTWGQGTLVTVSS VL: DIQMTQSPSSLSASVGDRVTITCSGGDSYAGSYYYGWYQQKPGKAPKTLIYNNNNRPSGVPSRFSGSRSGTDFTLTISSLQPEDFATYYCGSRDSSYVGIFGQGTKVEIK | 1.9e+06
DA7: humanized or deimmunized variant of parental clone D0; CDRs SEQ ID NO 1, 2, 7 / 4, 10, 13 (antibody, V domains shown) VH: EVQLVESGGGLVQPGGSLRLSCAASGFTFSSFNMLWVRQAPGKGLEWVAGIGKSDRYTGYGSAVKGRFTISRDDSKSTVYLQMNSLRAEDTAVYYCSRDAGSGCGSGGWTGACIDTWGQGTLVTVSS VL: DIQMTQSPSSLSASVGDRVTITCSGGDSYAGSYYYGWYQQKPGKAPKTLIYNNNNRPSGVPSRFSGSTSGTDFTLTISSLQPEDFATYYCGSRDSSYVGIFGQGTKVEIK | 1.4e+06
DA6: humanized or deimmunized variant of parental clone D0; CDRs SEQ ID NO 1, 2, 7 / 4, 10, 13 (antibody, V domains shown) VH: EVQLVESGGGLVQPGGSLRLSCAASGFTFSSFNMLWVRQAPGKGLEWVAGIGKSDRYTGYGSAVKGRFTISRDDSKSTVYLQMNSLRAEDTAVYYCARDAGSGCGSGGWTGACIDTWGQGTLVTVSS VL: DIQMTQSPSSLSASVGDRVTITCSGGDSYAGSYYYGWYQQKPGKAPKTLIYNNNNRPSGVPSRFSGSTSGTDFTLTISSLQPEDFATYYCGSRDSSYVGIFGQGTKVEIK | 7.8e+06
